Each item that follows carries a reported Rep 2.
Biological target: Anti-Müllerian hormone Receptor 2 (AMH-R2), protein target applied to the peptide microarray (UniProt Q16671)
Experiment: peptide microarray; protein target detected by anti-GST and Alexa Fluor 647 antibody, scanned signal
Non-standard residues stand in square brackets, D forms with d. No end group written: not given here.
quantity-kind: Rep 2

{"columns": ["binder", "measured-result"],
 "data": [
  ["[dR][dW]G[dA]SN[dK]HFAN[dA]NQ[dR][dA][dL] [NegAMHR2BP (SEQ ID NO: 4)]", 65400],
  ["EG[dL]QSSAYNNY[dW][dR][dK][dL]V[dA] [AMH receptor binding peptide SEQ ID NO: 17]", 62200],
  ["G[dL]Q[dW]SFANGQ[dW][dR]G[dA][dL]SG [AMH receptor binding peptide SEQ ID NO: 12]", 62900]
]}
